Provide the reported IC50 of inhibition of Dil-Acetylated LDL uptake of each item.
- Tested Target: T1, human MSR1 with a C-terminal Myc tag expressed on HEK293.Myc.hMSR1 cells (human, UniProt P21757 1-451)
- T1 sequence (looked up): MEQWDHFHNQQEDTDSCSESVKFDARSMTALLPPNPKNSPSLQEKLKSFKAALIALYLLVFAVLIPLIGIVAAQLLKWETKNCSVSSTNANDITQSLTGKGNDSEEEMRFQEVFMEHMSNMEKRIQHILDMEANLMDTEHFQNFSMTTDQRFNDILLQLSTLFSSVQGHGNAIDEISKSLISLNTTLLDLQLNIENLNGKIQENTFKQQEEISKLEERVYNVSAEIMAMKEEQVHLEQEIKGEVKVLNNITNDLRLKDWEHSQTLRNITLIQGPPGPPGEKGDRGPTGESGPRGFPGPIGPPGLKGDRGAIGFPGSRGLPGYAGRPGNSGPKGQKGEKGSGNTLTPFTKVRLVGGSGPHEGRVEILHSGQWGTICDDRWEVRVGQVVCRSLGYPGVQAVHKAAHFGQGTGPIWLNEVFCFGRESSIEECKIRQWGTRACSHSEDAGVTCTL
- Test Method Notes: cell-based or functional assay
One number for each entry, in nM.

The cases that follow already have their IC50 of inhibition of Dil-Acetylated LDL uptake on record.
Binder | Numeric Readout
H2bM21234N (antibody, V domains shown) VH: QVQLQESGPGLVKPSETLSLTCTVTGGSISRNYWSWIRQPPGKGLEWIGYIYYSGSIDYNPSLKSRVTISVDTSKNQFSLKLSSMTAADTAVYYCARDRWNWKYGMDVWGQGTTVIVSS VL: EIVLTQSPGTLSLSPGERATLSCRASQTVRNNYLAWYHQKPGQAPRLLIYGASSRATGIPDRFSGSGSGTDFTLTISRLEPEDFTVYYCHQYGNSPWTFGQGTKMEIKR | 1.8
H1H27731P-N297Q (antibody, V domains shown) VH: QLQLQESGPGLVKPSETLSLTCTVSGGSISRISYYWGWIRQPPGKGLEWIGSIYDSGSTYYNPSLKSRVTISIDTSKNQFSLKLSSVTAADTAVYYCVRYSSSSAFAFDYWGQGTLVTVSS VL: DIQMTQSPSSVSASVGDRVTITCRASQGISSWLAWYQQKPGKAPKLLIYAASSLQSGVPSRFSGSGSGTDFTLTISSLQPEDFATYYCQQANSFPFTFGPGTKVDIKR | 1.8

# input for lookup
# input Need IC50 of inhibition of Dil-Acetylated LDL uptake of H1H21234N-N297Q (antibody, V domains shown) VH: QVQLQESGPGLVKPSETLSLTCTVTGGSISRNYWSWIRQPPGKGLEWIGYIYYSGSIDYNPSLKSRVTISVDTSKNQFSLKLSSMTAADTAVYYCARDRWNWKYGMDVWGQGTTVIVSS VL: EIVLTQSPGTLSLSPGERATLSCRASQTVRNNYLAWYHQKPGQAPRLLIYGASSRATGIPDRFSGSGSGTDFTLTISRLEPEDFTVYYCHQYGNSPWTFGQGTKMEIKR , thanks.
# output 1.3
